Hello, the source for this data is paper PMC8743659, in case you need it.

methodSummary: Pharmacokinetic study, plasma by UHPLC-MS/MS
Type: in vivo, Sprague-Dawley (SD) rats
conditionsUsed: male, Sprague-Dawley, iv; rat plasma, i.v. 4 mg/kg
Experimental: Agilent 1290 UHPLC system and 6420 series Triple‐Quadrupole Tandem Mass Spectrometer (Agilent Corporation) maintained at 35°C with a ZORBAX Eclipse Plus C18 column (1.8 μm, 2.1 × 50 mm). […] The desolation gas (nitrogen) flow was set to 10 L/h: the capillary voltage: 4000 V; nebulizing gas and drying gas (both nitrogen): 45 psi and 350°C, respectively. The MRM mode with m/z 282.2→76.9 for C1632 and m/z 282.1→194.0 for IS was used for quantitative analysis. […]
readout: AUC(0-t) (ng·h/mL)

{"entrySmiles": "CC(=O)N(C)c1cccc(-c2ccc3nnc(C)n3n2)c1", "readout": "AUC(0-t)", "resultNumber": 4090}

====

methodSummary: Pharmacokinetic study, plasma by UHPLC-MS/MS
Type: in vivo, Sprague-Dawley (SD) rats
conditionsUsed: male, Sprague-Dawley, iv; rat plasma, i.v. 4 mg/kg; read-out: t1/2z (converted)

{"molecule": "CC(=O)N(C)c1cccc(-c2ccc3nnc(C)n3n2)c1 [C1632]", "half-life, h": 1.14}

====

methodSummary: Pharmacokinetic study, plasma by UHPLC-MS/MS
Type: in vivo, Sprague-Dawley (SD) rats
conditionsUsed: male, Sprague-Dawley, rat, plasma, oral, 20 mg/kg, rats, p.o. 20 mg/kg vs i.v. 4 mg/kg; read-out: F (bioavailability)
readout: bioavailability (%)

{"entrySmiles": "CC(=O)N(C)c1cccc(-c2ccc3nnc(C)n3n2)c1", "outputUnit": "%", "resultNumber": 44.5}
